Just for reference, ChEMBL document CHEMBL1821582 is where these values come from.

Items are presented alongside their recorded IC50.
- target: Sphingosine 1-phosphate receptor 3 (Homo sapiens)
- Sequence (Q99500 whole entry): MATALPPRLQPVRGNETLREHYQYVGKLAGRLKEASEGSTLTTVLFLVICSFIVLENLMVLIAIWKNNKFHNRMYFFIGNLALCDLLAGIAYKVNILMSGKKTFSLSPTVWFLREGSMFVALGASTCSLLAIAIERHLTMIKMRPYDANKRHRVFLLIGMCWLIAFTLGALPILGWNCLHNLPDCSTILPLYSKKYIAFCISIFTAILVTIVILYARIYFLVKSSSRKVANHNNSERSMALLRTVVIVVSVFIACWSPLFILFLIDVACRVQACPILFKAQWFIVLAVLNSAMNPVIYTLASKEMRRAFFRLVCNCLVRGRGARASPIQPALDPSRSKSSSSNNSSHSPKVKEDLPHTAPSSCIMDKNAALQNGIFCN
- protocolText: Antagonist activity at S1P3 receptor

Cc1ccc(C)c(-c2ccc(C(=O)Nc3c(C)cccc3C)o2)c1 :: > 20 µM

// moving on: another record for IC50
Inquiry: Give the measured IC50 of Cc1cccc(C)c1NC(=O)c1ccc(-c2cc(Cl)ccc2Cl)o1 .
Reply text: > 20 µM

---

- target: Sphingosine 1-phosphate receptor 2 (Homo sapiens)
- Sequence (O95136 whole entry): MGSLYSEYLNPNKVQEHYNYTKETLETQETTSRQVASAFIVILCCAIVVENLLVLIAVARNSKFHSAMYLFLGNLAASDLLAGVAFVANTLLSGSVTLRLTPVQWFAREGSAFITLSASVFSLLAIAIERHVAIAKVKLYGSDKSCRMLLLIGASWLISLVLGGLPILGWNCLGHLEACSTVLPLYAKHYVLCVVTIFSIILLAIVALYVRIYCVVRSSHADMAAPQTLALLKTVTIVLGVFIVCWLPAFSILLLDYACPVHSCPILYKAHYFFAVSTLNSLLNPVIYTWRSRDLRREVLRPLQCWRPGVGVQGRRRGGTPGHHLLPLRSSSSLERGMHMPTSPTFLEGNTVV
- protocolText: Antagonist activity at S1P2 receptor
readoutName: IC50

Inquiry: I'm curious: which IC50 was measured for Cc1ccc(C)c(-c2ccc(C(=O)Nc3c(C)cccc3C)s2)c1 tested on Sphingosine 1-phosphate receptor 2 (Homo sapiens)?
Reply text: 1100 nM

---

- target: Sphingosine 1-phosphate receptor 1 (Homo sapiens, UniProt P21453)
- Sequence (P21453 whole entry): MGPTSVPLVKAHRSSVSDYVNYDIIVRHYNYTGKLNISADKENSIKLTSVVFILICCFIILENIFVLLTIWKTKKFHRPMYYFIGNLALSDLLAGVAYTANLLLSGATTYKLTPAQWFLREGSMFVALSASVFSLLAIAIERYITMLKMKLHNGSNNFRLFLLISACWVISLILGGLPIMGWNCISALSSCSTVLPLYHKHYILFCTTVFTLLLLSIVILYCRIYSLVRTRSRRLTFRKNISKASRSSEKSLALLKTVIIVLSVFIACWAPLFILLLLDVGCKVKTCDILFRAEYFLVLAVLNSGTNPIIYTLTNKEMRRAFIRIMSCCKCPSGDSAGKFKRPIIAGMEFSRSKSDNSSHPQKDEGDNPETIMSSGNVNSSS
- protocolText: Antagonist activity at S1P1 receptor
pIC50: −log10 of the molar value.
readoutName: pIC50

Cc1cccc(C)c1NC(=O)c1ccc(-c2cc(Cl)ccc2Cl)o1 :: < 4.70

// moving on: another record for pIC50
Inquiry: Give the measured pIC50 of Cc1ccc(C)c(-c2ccc(C(=O)Nc3c(C)cccc3C)o2)c1 .
Reply text: < 4.70

---

- target: Sphingosine 1-phosphate receptor 4 (Homo sapiens, UniProt O95977)
- Sequence (O95977 whole entry, the tested form may be a part): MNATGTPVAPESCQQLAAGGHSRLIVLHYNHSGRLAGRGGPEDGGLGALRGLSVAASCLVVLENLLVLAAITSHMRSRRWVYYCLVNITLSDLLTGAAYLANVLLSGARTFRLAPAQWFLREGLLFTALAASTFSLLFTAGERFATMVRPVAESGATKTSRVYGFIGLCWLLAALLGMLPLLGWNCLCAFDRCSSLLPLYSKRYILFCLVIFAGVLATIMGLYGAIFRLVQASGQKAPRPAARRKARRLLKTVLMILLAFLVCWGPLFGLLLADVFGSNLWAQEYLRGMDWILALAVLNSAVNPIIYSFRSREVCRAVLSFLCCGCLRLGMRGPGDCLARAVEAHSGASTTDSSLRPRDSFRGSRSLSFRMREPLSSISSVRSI
- protocolText: Antagonist activity at human S1P4 receptor expressed in EDG6-bla U2OS cells coexpressing human endothelial differentiation gene 6 linked to GAL4-VP16 assessed as beta-lactamase expression by FRET assay
readoutName: IC50 (nM)
Number in nM, nothing else.

Here are 7 compounds together with their reported answers.
Cc1ccc(C)c(-c2coc(C(=O)Nc3c(C)cccc3C)c2)c1 :: 211
Cc1ccc(C)c(-c2cc(C)c(C(=O)Nc3c(C)cccc3C)o2)c1 :: 173
Cc1ccc(C)c(-c2cc(C(=O)Nc3c(C)cccc3C)co2)c1 :: 233
Cc1ccc(C)c(-c2cccc(C(=O)Nc3c(C)cccc3C)c2)c1 :: 75
Cc1ccc(C)c(-c2cc(C(=O)Nc3c(C)cccc3C)ccc2C)c1 :: 2400
Cc1ccc(C)c(-c2ccc(C(=O)Nc3c(C)cccc3C)n2C)c1 :: 6300
Cc1ccc(C)c(-c2ccc(C(=O)Nc3c(C)cccc3C)s2)c1 :: 59

Inquiry: I'm curious: which IC50 was measured for Cc1ccc(C)c(-c2oc(C(=O)Nc3c(C)cccc3C)cc2C)c1 tested on Sphingosine 1-phosphate receptor 4 (Homo sapiens, UniProt O95977)?
Reply text: 911
